target or system: hGIPR (Homo sapiens, UniProt P48546)
Sequence (P48546 22-466): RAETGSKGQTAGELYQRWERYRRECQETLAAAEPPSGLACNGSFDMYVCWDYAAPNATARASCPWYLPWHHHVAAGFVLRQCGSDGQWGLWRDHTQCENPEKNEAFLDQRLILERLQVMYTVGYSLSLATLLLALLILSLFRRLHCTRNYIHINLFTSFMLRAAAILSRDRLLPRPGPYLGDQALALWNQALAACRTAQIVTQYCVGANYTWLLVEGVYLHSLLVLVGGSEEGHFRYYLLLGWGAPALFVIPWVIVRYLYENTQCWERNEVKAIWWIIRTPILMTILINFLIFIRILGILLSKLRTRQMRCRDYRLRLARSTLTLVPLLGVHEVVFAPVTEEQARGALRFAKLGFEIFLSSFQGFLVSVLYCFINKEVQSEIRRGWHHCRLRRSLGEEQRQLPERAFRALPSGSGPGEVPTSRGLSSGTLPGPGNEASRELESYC
assay text: Functional cAMP activity in the presence of 1% HSA
Assay type: cell-based
study conditions: read-out: cAMP Rel EC50, hGIPR
pEC50: −log10 of the molar value. Starred links: 1 amine or outer side, 2 acyl side, 3 side chain; linkers in the order of their positions; H or OH if unused. Non-standard residues stand in square brackets, D forms with d. Groups on a side chain read outwards from the residue. *: point of attachment. C18 diacid = O=C(O)CCCCCCCCCCCCCCCCC(=O)*; αMePhe(2-F) = C[C@](N)(Cc1ccccc1F)C(=O)O; γGlu = O=C(O)[C@H](CCC(=O)[*:2])N[*:1]; αMe4Pal = C[C@](N)(Cc1ccncc1)C(=O)O; αMeY = C[C@](N)(Cc1ccc(O)cc1)C(=O)O; 4Pal = N[C@@H](Cc1ccncc1)C(=O)O; αMeL = CC(C)C[C@](C)(N)C(=O)O; αMeS = C[C@](N)(CO)C(=O)O; Orn = NCCC[C@H](N)C(=O)O; AEEA = NCCOCCOCC(=O)O; Aib = CC(C)(N)C(=O)O
// label = Met if pEC50 is not less than 8, otherwise Not met

Lookup: State whether the measured pEC50 reaches 8, counting equality as reaching it, for H-Y[Aib]QGT[αMePhe(2-F)]TSD[4Pal][αMeS]I[αMeL]LD[Orn]K([γGlu-γGlu-C18 diacid])AQ[αMe4Pal]EFI[dE][αMeY]LIEGGPSSGEPPPSGSE-NH2 [Example 716]
Found: Met

Lookup: Decide: is the reported value of pEC50 for H-Y[Aib]QGTFTSD[4Pal]SQ[αMeL]LD[Orn]K([γGlu-γGlu-C18 diacid])AQ[αMe4Pal]AFIE[αMeY]LIEGGPSSGEPPPSGSEE-NH2 [Example 1027] equal to or greater than 8?
Found: Not met

Lookup: Determine whether this substance has pEC50 no lower than 8: H-Y[Aib]QGTFTSDFS[Orn][αMeL]LDKK([AEEA-γGlu-C18 diacid])AQ[Aib]AFIEWLLEGGTSSGAPPPSGT-NH2 [Example 177]
Found: Not met

Attribution: patent US20240270821A1
